- Test system: HepG2
- Experimental protocol: Antiproliferative activity against human HepG2 cells assessed as reduction in cell growth after 72 hrs by MTT assay
- Assay type: functional, cell-based
- Experimental context: HepG2, 72 h
pIC50: −log10 of the molar value.
Reported endpoint: pIC50

>>> test_result("CN1Cc2c(ccc3c2OCO3)[C@H]2[C@@H](OC(=O)CCC(=O)OCCCOc3no[n+]([O-])c3S(=O)(=O)c3ccccc3)Cc3cc4c(cc3[C@H]21)OCO4")
4.98
>>> test_result("CN1Cc2c(ccc3c2OCO3)[C@H]2[C@@H](OC(=O)CCC(=O)OCC#CCOc3no[n+]([O-])c3S(=O)(=O)c3ccccc3)Cc3cc4c(cc3[C@H]21)OCO4")
4.84
>>> test_result("CN1Cc2c(ccc3c2OCO3)[C@H]2[C@@H](OC(=O)CCC(=O)NCCCOc3no[n+]([O-])c3S(=O)(=O)c3ccccc3)Cc3cc4c(cc3[C@H]21)OCO4")
4.77
>>> test_result("CN1Cc2c(ccc3c2OCO3)[C@H]2[C@@H](OC(=O)CCCC(=O)OCCOCCOc3no[n+]([O-])c3S(=O)(=O)c3ccccc3)Cc3cc4c(cc3[C@H]21)OCO4")
5.18
>>> test_result("O=c1[nH]cc(F)c(=O)[nH]1 [FLUOROURACIL]")
4.49

// provenance: ChEMBL document CHEMBL4610039
